test system: IGROV1 ovarian; assay: NCI tumour cell line growth inhibition, 48 h
measurement type: TGI

Some solved entries appear below for comparison.
compound	TGI
CCN(CC)c1ccc2[nH]c3c(C(N)=O)cc(=O)c(=O)c=3oc2c1	1.24 µM
N/C(=N\Nc1cccc(Cl)c1)c1cccnc1	> 100 µM
c1ccc2c(c1)Sc1ccccc1N2CCCN1c2ccccc2Sc2ccccc21	> 100 µM

Tell me measured TGI for CCCC[P+](CCCC)(CCCC)C(C(=O)OC)C(C(=O)OC)=C1SC(C(=O)OC)=C(C(=O)OC)S1 (configuration not stated) please.
> 100 µM

Tell me measured TGI for `Cc1ccc(C2=[N+]([O-])c3ccccc3C2=O)cc1` please.
43 µM

Tell me measured TGI for `Cc1nc2ccc(S(=O)(=O)Nc3ccccn3)cc2c(=O)n1NS(=O)(=O)c1ccccn1` please.
> 100 µM

----------
tested on: RXF 393 renal; test: NCI tumour cell line growth inhibition, 48 h
measurement type: TGI

Tell me measured TGI for `O=c1[nH]nc(Cc2ccccc2)n1N=C1CCCCC1` please.
> 100 µM

----------
test system: A549 NSCLC; test: NCI tumour cell line growth inhibition, 48 h
measurement type: TGI

>>> print(df.to_string())
                                   molecule  reported
0       CC(=O)CC(=O)CCCC(=O)Nc1ccc(Cl)cc1Cl  > 100 µM
1         CNc1nc2c(C)ccc3nc(N(C)C)nc-3c2n1C   > 10 µM
2  CN(C)CCCNC(=O)c1cc(NC(=O)c2cc(NC(=O)CCCN3c4ccccc4C=Cc4ccccc43)cn2C)cn1C   39.9 µM

Tell me measured TGI for `COc1cccc(/C=C\c2cc(OC)c(OC)c(OC)c2)c1` please.
> 100 µM

Tell me measured TGI for `CN(C)c1ccc(/C=C(\NC(=O)c2ccccc2)c2nc3ccccc3c(=O)o2)cc1` please.
> 100 µM

Tell me measured TGI for `Clc1ccc(Nc2ccnc(NCCNc3ccnc4cc(Cl)ccc34)n2)cc1` please.
3.1 µM

Tell me measured TGI for CC1=C(C(=O)Nc2ccc(F)c(Cl)c2)C(c2cccc(O)c2)NC(=S)N1 (configuration not stated) please.
> 50 µM

----------
Form field: TGI (one value per entry).
test system: OVCAR-5 ovarian; assay: NCI tumour cell line growth inhibition, 48 h

Some solved entries appear below for comparison.
In [3]: df
Out[3]:
                                   compound  reported
0  O=C1CC2(CCCc3sccc32)C(=O)N1 (stereo unspecified)  > 100 µM
1  Cc1cc(N(CCC#N)CCC#N)ccc1N=Nc1ccccc1[N+](=O)[O-]  > 100 µM
2       CCCCn1c(C)c(C)c2c1NN=C(C#N)S2(=O)=O  > 100 µM
3  O=[N+]([O-])c1ccc2c(c1)OCCOCCOc1ccc([N+](=O)[O-])cc1OCCOCCO2  > 100 µM
4  O=S(=O)(O)c1ccc(N=Nc2c(O)ccc3ccccc23)cc1  > 100 µM

Read the next record carefully.
Tell me measured TGI for COC(=O)[C@H](C)[C@H]1CC[C@@](C)([C@H]2CC3C(C)(C)[C@H]4CCC(C)=C[C@H]4C[C@@]3(C)O2)OO1 (stereo partly specified) please.
26.2 µM
